# target_of_assay: ferroportin fused to green fluorescent protein (ECR293/Fpn-GFP cells) (Mus musculus, UniProt Q9JHI9)
# Sequence (Q9JHI9 1-570): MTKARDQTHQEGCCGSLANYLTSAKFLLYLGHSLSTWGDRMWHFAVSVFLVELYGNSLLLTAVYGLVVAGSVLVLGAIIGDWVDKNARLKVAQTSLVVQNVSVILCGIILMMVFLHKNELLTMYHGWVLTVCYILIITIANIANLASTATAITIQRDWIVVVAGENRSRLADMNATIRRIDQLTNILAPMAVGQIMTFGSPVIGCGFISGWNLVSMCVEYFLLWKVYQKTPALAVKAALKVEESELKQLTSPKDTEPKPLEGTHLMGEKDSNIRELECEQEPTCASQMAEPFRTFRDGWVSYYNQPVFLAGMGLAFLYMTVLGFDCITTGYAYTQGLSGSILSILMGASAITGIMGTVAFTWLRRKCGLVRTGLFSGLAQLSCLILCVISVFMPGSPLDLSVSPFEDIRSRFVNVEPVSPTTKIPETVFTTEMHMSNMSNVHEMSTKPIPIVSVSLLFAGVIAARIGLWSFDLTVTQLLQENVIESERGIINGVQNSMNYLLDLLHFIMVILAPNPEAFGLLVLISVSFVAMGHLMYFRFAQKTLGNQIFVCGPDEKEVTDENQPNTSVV
# test: Flow cytometry of ferroportin-GFP internalization and degradation in ECR293/Fpn-GFP cells
# Type: cell-based
# measurement_conditions: concentration eliciting 50% of maximal loss of fluorescence generated by reference Hep25; 24 hours
Square brackets hold non-standard residues; d marks the D form. Peptide text beside a SMILES is read from it. Dip = N[C@H](C(=O)O)C(c1ccccc1)c1ccccc1
measured_property: log10 EC50 (log10 of the value in nM)
Response schema: value (number) is log10 of EC50 in units of nM.

Answered examples (4):
# molecule, log10 EC50
data = [
    ("CC[C@H](C)[C@H](NC(=O)[C@H](CS)NC(=O)[C@@H](NC(=O)[C@@H]1CCCN1C(=O)[C@H](Cc1ccccc1)NC(=O)[C@H](Cc1c[nH]cn1)NC(=O)[C@@H](NC(=O)[C@@H](N)CC(=O)O)[C@@H](C)O)[C@@H](C)CC)C(=O)N[C@@H](Cc1ccccc1)C(=O)N1CCC[C@@H]1C(=O)N1CCC[C@H]1CC(=O)N[C@@H](CCCCN)C(N)=O [Pr17]", 2.48),
    ("CC[C@H](C)[C@H](NC(=O)[C@H](CS)NC(=O)[C@@H](NC(=O)[C@@H]1CCCN1C(=O)[C@H](Cc1ccccc1)NC(=O)[C@H](Cc1c[nH]cn1)NC(=O)[C@@H](NC(=O)[C@@H](N)CC(=O)O)[C@@H](C)O)[C@@H](C)CC)C(=O)N[C@@H](Cc1ccccc1)C(=O)N1CCC[C@@H]1C(=O)N1CCC[C@H]1CC(=O)N[C@@H](CCCNC(=N)N)C(N)=O [Pr18]", 3.00),
    ("C[C@@H](O)[C@H](NC(=O)[C@@H](N)CC(=O)O)C(=O)N[C@@H](Cc1c[nH]cn1)C(=O)N[C@H](C(=O)N1CCC[C@H]1C(=O)N[C@H](CCCNC(=N)N)C(=O)N[C@@H](CS)C(=O)N[C@H](CCCNC(=N)N)C(=O)N[C@H](C(N)=O)C(c1ccccc1)c1ccccc1)C(c1ccccc1)c1ccccc1 [Pr43] (H-DTH[Dip]P[dR]C[dR][Dip]-NH2)", 2.30),
    ("CC[C@H](C)[C@H](NC(=O)[C@H](CS)NC(=O)[C@@H](NC(=O)[C@@H]1CCCN1C(=O)[C@@H](NC(=O)[C@H](Cc1c[nH]cn1)NC(=O)[C@@H](NC(=O)[C@@H](N)CC(=O)O)[C@@H](C)O)C(c1ccccc1)c1ccccc1)[C@@H](C)CC)C(=O)N[C@H](C(N)=O)C(c1ccccc1)c1ccccc1 [Pr39] (H-DTH[Dip]PICI[Dip]-NH2)", 1.54),
]

Read the next record carefully.
Ask | Identify the reported log10 EC50 for the following entry. C[C@@H](O)[C@H](NC(=O)[C@@H](N)CC(=O)O)C(=O)N[C@@H](Cc1c[nH]cn1)C(=O)N[C@H](C(=O)N1CCC[C@H]1C(=O)N[C@@H](CCCNC(=N)N)C(=O)N[C@@H](CS)C(=O)N[C@@H](CCCNC(=N)N)C(=O)N[C@H](C(N)=O)C(c1ccccc1)c1ccccc1)C(c1ccccc1)c1ccccc1 [Pr42] (H-DTH[Dip]PRCR[Dip]-NH2; N-terminus assumed)
Reply | 1.48
